Sourced from PubChem BioAssay AID651740

# measurementNotes: inhibitors of intracellular T. cruzi replication, confirmation, NIH3T3 host cells, beta-gal parasites, cherry-pick, set 2 (AID 651740);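 note: plate controls were neutral control median for no effect and positive control median for full effect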
# condition: T. cruzi beta-gal in NIH3T3, GalScreen luminescence, 90 h; at 2.09 µM; active compounds read high
Screen size: about 5,600 compounds; about 1,200 (21%) were called active. Roughly 3% stayed inconclusive and do not appear here. The list is a sample of the results.
A collection of molecules and their measured inhibition
Number in %, nothing else.

inhibition in this record for Cc1ccccc1-c1ccc([C@H]2[C@H]3CN(S(=O)(=O)c4ccc(F)cc4)CCCCN3[C@H]2CO)cc1 : 93.8

***
inhibition in this record for CC(=O)N(C)C[C@H]1Oc2cc(C#CCN(C)C)ccc2S(=O)(=O)N([C@@H](C)CO)C[C@@H]1C : 91.3

inhibition in this record for CCCN(C)C[C@H]1Oc2cc(C#CC3CCCC3)ccc2S(=O)(=O)N([C@H](C)CO)C[C@@H]1C : 68.9

inhibition in this record for CNC[C@H]1OCCCC[C@H](C)Oc2ccc(NC(=O)Nc3c(C)noc3C)cc2C(=O)N([C@H](C)CO)C[C@H]1C : 2.68

inhibition in this record for CCC(=O)N1CC[C@@H]2[C@@H](CO)N(C)c3ccc(-c4ccc(F)cc4)cc3[C@@H]21 : 79.1

inhibition in this record for OC[C@@H]1[C@H](c2ccc(C#CC3(O)CCCC3)cc2)[C@H]2CN(Cc3cncnc3)CCCCN12 : 79.8

inhibition in this record for C[C@H]1CN([C@@H](C)CO)S(=O)(=O)c2ccc(C#CC3CCCC3)cc2O[C@@H]1CN(C)C(=O)c1cccc(F)c1 : 100

---

A collection of molecules and their measured inhibition
# measurementNotes: inhibitors of intracellular T. cruzi replication, confirmation, NIH3T3 host cells, beta-gal parasites, cherry-pick, set 2 (AID 651740)
# condition: T. cruzi beta-gal in NIH3T3, GalScreen luminescence, 90 h; at 2.09 µM; active compounds read high
Out of some 5,600 compounds screened, about 1,200 (21%) were called active. About 3% were inconclusive and are not listed. Not all results are given here.

inhibition in this record for Cc1ccccc1S(=O)(=O)N1CC[C@H]2[C@H](CO)Nc3ccc(-c4cccc(F)c4)cc3[C@H]21 : 93.1% (inactive)

inhibition in this record for CC(=O)N1CC[C@@H]2[C@H](CO)Nc3ccc(C#Cc4ccccc4F)cc3[C@@H]21 : 14.9% (inactive)

inhibition in this record for CN(C)C(=O)c1ccc(-c2ccc3c(c2)[C@H]2[C@H](CCN2C(=O)c2ccc4c(c2)OCO4)[C@H](CO)N3)cc1 : 72.2% (inactive)

---

# measurementNotes: inhibitors of intracellular T. cruzi replication, confirmation, NIH3T3 host cells, beta-gal parasites, cherry-pick, set 2 (AID 651740);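 note: plate controls were neutral control median for no effect and positive control median for full effect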
# condition: T. cruzi beta-gal in NIH3T3, GalScreen luminescence, 90 h; at 2.09 µM; active compounds read high
Screen size: about 5,600 compounds; about 1,200 (21%) were called active. About 3% were inconclusive and are not listed. Only a sample is shown.
assayReadout: inhibition (%)
Number in %, nothing else.

Worked set:
inhibition in this record for C[C@H]1CN([C@@H](C)CO)C(=O)c2cccc(NS(=O)(=O)c3cn(C)cn3)c2O[C@@H]1CN(C)CC1CCCCC1 : 29.6

inhibition in this record for COc1ccc(NC(=O)N(C)C[C@@H]2OCCCC[C@@H](C)Oc3ccc(NS(=O)(=O)c4ccc(Cl)cc4)cc3C(=O)N([C@H](C)CO)C[C@H]2C)cc1 : 44.3

inhibition in this record for C[C@@H]1CN([C@H](C)CO)S(=O)(=O)c2ccc(C#CC3CCCC3)cc2O[C@@H]1CN(C)Cc1cccnc1 : 60.2

***
inhibition in this record for O=C(c1ccc(F)cc1)N1CCCCN2[C@H](C1)[C@@H](c1ccc(C#CC3(O)CCCC3)cc1)[C@@H]2CO : 2.53

inhibition in this record for C[C@@H]1CN([C@@H](C)CO)S(=O)(=O)c2ccc(C#Cc3ccc(F)cc3)cc2O[C@H]1CN(C)C(=O)NC1CCCC1 : 81.2

inhibition in this record for Cc1ccc(S(=O)(=O)N(C)C[C@H]2OCCCC[C@H](C)Oc3ccc(NC(=O)Cc4ccccc4)cc3C(=O)N([C@@H](C)CO)C[C@@H]2C)cc1 : 95

---

A collection of molecules and their measured inhibition
# measurementNotes: inhibitors of intracellular T. cruzi replication, confirmation, NIH3T3 host cells, beta-gal parasites, cherry-pick, set 2 (AID 651740);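 note: plate controls were neutral control median for no effect and positive control median for full effect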
# condition: T. cruzi beta-gal in NIH3T3, GalScreen luminescence, 90 h; at 2.09 µM; active compounds read high
Out of some 5,600 compounds screened, about 1,200 (21%) were called active. About 3% were inconclusive and are not listed. These entries were drawn from the full list.

Worked set:
inhibition in this record for C[C@H](CO)N1C[C@H](C)[C@@H](CN(C)Cc2ccc(C(=O)Nc3ccccc3N)cc2)Oc2c(NC(=O)c3ccc(-c4nccs4)cc3)cccc2C1=O : 60.5% (inactive)

inhibition in this record for C[C@@H]1CN([C@H](C)CO)C(=O)Cc2cc(NC(=O)c3ccncc3)ccc2O[C@H]1CN(C)Cc1ccc(-c2ccccc2)cc1 : 48.9% (inactive)

inhibition in this record for COc1ccc(C#Cc2ccc([C@@H]3[C@@H](CO)N4CCCCN(C(=O)c5ccncc5)C[C@@H]34)cc2)cc1 : 30% (inactive)

// moving on: another record for inhibition
inhibition in this record for CN1c2ccc(-c3ccccc3)cc2[C@H]2[C@H](CCN2C(=O)Cc2ccccn2)[C@H]1CO : 72.9% (inactive)

---

# measurementNotes: inhibitors of intracellular T. cruzi replication, confirmation, NIH3T3 host cells, beta-gal parasites, cherry-pick, set 2 (AID 651740);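 note: plate controls were neutral control median for no effect and positive control median for full effect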
# condition: T. cruzi beta-gal in NIH3T3, GalScreen luminescence, 90 h; at 2.09 µM
Among all 5,600 compounds or so, about 1,200 (21%) were called active. Another 3% or so got no clear call; they are omitted.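 The calls were made as follows: active = mean inhibition above about 95%, with at least 55% of replicates also reaching it (limit read from the data); inconclusive = meets just one of the two conditions; inactive = meets neither condition.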 A selection follows.
Write down the outcome that applies. Available outcomes: active, inactive

Solved cases (4 shown):
For this compound, state the assay outcome: O=C(CN1CCOCC1)N1CCCCN2[C@H](CO)[C@H](c3ccc(-c4ccccc4)cc3)[C@@H]2C1
inactive

For this compound, state the assay outcome: Cc1ccc(-c2ccc([C@H]3[C@H](CO)N4CCCCN(Cc5cncnc5)C[C@@H]34)cc2)cc1
inactive

For this compound, state the assay outcome: COc1ccc(NC(=O)Nc2ccc3c(c2)C(=O)N([C@H](C)CO)C[C@@H](C)[C@H](CN(C)Cc2ccc(Cl)c(Cl)c2)OCCCC[C@@H](C)O3)cc1
active

For this compound, state the assay outcome: COc1ccccc1C#Cc1ccc([C@@H]2[C@H](CO)N3CCCCN(C(=O)C4CC4)C[C@@H]23)cc1
inactive

Turning to the following compound.
For this compound, state the assay outcome: O=S(=O)(Cc1ccccc1)N1CCCCN2[C@@H](CO)[C@@H](c3ccc(-c4ccc(F)cc4)cc3)[C@@H]2C1
active
